The reported numbers originate from PubChem BioAssay.

assay: small-molecule microarray binders of probe aShh, primary screen, biochemical, biotinylated probe, 635/667 nm fluorescence (AID 1114); conditions: higher = more signal;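 note: probe is biotin-labelled aShh protein from a stem cell growth factor screen; measures binding of labelled protein to compounds printed on the slide; score merges feature fluorescence at 667 nm with signal-to-noise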

| COMPOUND | composite z-score |
| --- | --- |
| COc1cccc([C@@H]2Oc3ccc(OC)cc3C(=O)[C@H]2O)c1 | -0.0211 |
| C[C@H]1COC(=O)[C@@H]2CCCN2C(=O)[C@@H](C)COC(=O)[C@H](Cc2ccccc2)NC1=O | -0.206 |
| CCOC(=O)[C@H](Cc1ccccc1)NC(=O)CCC1CC(OC(=O)NCc2cccc3ccccc23)CC2(CCCC(COC(=O)NCc3ccccc3)O2)O1 (stereo partly drawn) | -0.145 |
| CC(C)(C)N1C(=O)[C@H]2[C@H]3[C@H](O)[C@H](O)CC(=O)[C@@H]3CC[C@H]2C1=O | 0.0121 |
| CC(=O)OC[C@H]1O[C@H](C#Cc2ccccc2)C=C[C@@H]1OC(C)=O | -0.124 |
| COC(=O)C=CCCc1coc(C=CCNC(=O)OC)n1 | 0.275 |
| O=C1C[C@@H](O)[C@@H](O)[C@@H]2[C@@H]3C(=O)N(C[C@@H]4CCCO4)C(=O)[C@@H]3CC[C@H]12 | -0.0337 |
| O=C1C[C@@H](O)[C@@H](O)[C@@H]2[C@@H]3C(=O)N(Cc4ccc5c(c4)OCO5)C(=O)[C@@H]3CC[C@H]12 | 0.0121 |

====

Reported z-score by item:
assay: MM1S cell viability effects, profiling panel, calcein-AM fluorescence, 48 h, basal (AID 1165); settings: higher = more signal;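 note: viability of MM1S multiple myeloma cells under basal unstimulated conditions; test concentration not given here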

| MOLECULE_SMILES | z-score |
| --- | --- |
| CCOC(=O)NN=C1C[C@@H](O)[C@@H](O)[C@@H]2[C@@H]3C(=O)N([C@@H](C)c4ccccc4)C(=O)[C@@H]3CC[C@@H]12 | 0.372 |
| O=C1[C@H]2[C@H]3[C@H](O)[C@H](O)CC(=NOCc4ccccc4)[C@H]3CC[C@H]2C(=O)N1Cc1ccc2c(c1)OCO2 | 0.424 |
| C[C@H]1Cc2c(COc3ccccc3)nc3c(c2CO1)CN(CCOc1ccccc1)CC3 | -0.125 |
| CON=C(C)CCC(=O)OC[C@H]1O[C@H](c2ccccc2)C=C[C@@H]1Oc1ccc(OC)cc1 | -1.32 |
| CCCNC(=O)OC[C@H]1O[C@H](CCON=C(C)CCN2CCCc3nc(C)c(C)cc32)C=C[C@@H]1Oc1ccc(OC)cc1 | -0.878 |

====

experiment: basal S. cerevisiae growth modulation, no modifier, primary screen, OD600, strain BY4716, 24 h, basal condition (AID 1173); details: OD600, 24 h, higher = more signal, called active from +8 up or from −8 down
Quick list: z-score per entry.
ASSAY_METRIC: z-score

| COMPOUND | ASSAY_METRIC | VALUE_MEASURED |
| --- | --- | --- |
| CCOC(=O)[C@H](CC(C)C)NC(=O)CCC1CC(OC(=O)NCc2ccc3c(c2)OCO3)CC2(CCCC(COC(=O)NCCCN3CCCC3=O)O2)O1 (stereo not given in full) | z-score | -1.17 |
| CCCNC(=O)OC[C@H]1O[C@H](c2ccccc2)C=C[C@@H]1Oc1ccc(OC)cc1 | z-score | -1.88 |
| COC(=O)CC=C[C@@H](C)[C@@H](C=NOCC[C@@H]1C=C[C@H](OC(C)=O)[C@@H](COC(C)=O)O1)OC | z-score | 0.557 |
| COC(=O)[C@@H]1CC[C@@H](C)[C@H](c2ccc(Br)cc2)N1 | z-score | -0.176 |
| CCOC(=O)[C@H](CC(C)C)NC(=O)CCC1CC(OC(=O)NCc2cccc3ccccc23)CC2(CCCC(COC(=O)NCCC(C)C)O2)O1 (stereo not given in full) | z-score | -2.17 |

====

assay: basal MM1S mitochondrial membrane potential changes, profiling panel, cell-based, JC-1 fluorescence, 24 h, 100 nL compound (AID 1170); conditions: higher = more signal; note: test concentration not given here
ASSAY_METRIC: z-score

| COMPOUND | VALUE_MEASURED |
| --- | --- |
| CC(C)C[C@H](NC(=O)CCC1CC(OC(=O)NCc2cccc3ccccc23)CC2(CCCC(COC(=O)NCc3ccccc3)O2)O1)C(=O)NCC(c1ccccc1)c1ccccc1 (stereo partly drawn) | -0.715 |
| Cc1ccc(S(=O)(=O)N[C@H]2COC(=O)CC=C[C@H](C)[C@@H](NS(=O)(=O)c3ccc(C)cc3)COC(=O)CC=C[C@@H]2C)cc1 | 0.507 |
| CC(C)=NOC[C@@H](C)[C@H](OCc1ccccc1)C(C)C | 0.503 |

====

assay: S. cerevisiae RM11-1a growth modifiers, primary screen, strain RM11-1a, OD600, basal, 24 h (AID 1177); conditions: OD600, 24 h, higher = more signal, called active from +8 up or from −8 down;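 note: cultures grown under basal conditions with no added stressor; test concentration not given here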
The threshold is inclusive: z-score of exactly -0.2 counts as 1; values below receive -1.

| COMPOUND | GROUP_LABEL |
| --- | --- |
| CCOC(=O)NN=C1C[C@@H](O)[C@@H](O)[C@@H]2[C@@H]3C(=O)N(Cc4ccc5c(c4)OCO5)C(=O)[C@@H]3CC[C@H]12 | 1 |
| CCOC(=O)NN=C1C[C@@H](O)[C@@H](O)[C@@H]2[C@@H]3C(=O)N(Cc4ccccc4)C(=O)[C@@H]3CC[C@H]12 | -1 |
| C[C@H](ON=C1[C@H]2CCn3c(=O)n(-c4ccccc4)c(=O)n3[C@H]2[C@H](O)[C@@H]2O[C@H]12)c1cn([C@H](CO)Cc2ccccc2)nn1 | -1 |
| C=C(C)C(=O)OCC1CN2[C@@H](CC[C@@H](C)[C@@H]2c2ccc(Br)cc2)C(=O)O1 (stereo not given in full) | 1 |
| Cc1ccc(S(=O)(=O)NC(CCc2ccccc2)CC(=O)C(C)(C)C)cc1 (stereo not given) | 1 |

====

test: small-molecule microarray binders of probe aXIP, primary screen, biochemical, NeuroSMM set, 635/667 nm fluorescence (AID 1119); conditions: higher = more signal, called active from +8 up or from −8 down;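 note: probe is the protein aXip251-270 applied at 1 µg/mL to compound-printed slides; binding of probe to printed compounds measured as 667 nm fluorescence plus signal to noise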
Item-by-item account of composite Z-score

| MOLECULE | composite Z-score |
| --- | --- |
| C[C@H]1CC[C@H]2C(=O)O[C@H](COc3ccc(C(C)(C)C)cc3)CN2[C@@H]1c1ccc(Br)cc1 | 1.48 |
| Cc1ccc(S(=O)(=O)N[C@H]2COC(=O)CC=C[C@@H](C)COC(=O)CC=C[C@@H]2C)cc1 | -0.821 |
| C[C@H]1CC[C@H]2C(=O)OC(CO)CN2[C@@H]1c1ccc(Br)cc1 (some centres undefined) | 0.456 |
| COc1ccc(O[C@H]2C=C[C@@H](c3ccccc3)O[C@@H]2CON=C2[C@H]3CCn4c(=O)n(-c5ccccc5)c(=O)n4[C@H]3[C@H](O)[C@@H]3O[C@H]23)cc1 | 0.125 |

====

molecular target: Dickkopf-related protein 1 (Homo sapiens); assay: DKK1 binders on small-molecule microarrays, primary screen, biochemical, small-molecule microarray, 635 nm fluorescence scan (AID 1106); settings: DKK1 binding, higher = more signal;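 note: score merges emission near 667 nm with signal to noise over three replicate slides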

| MOLECULE_SMILES | ASSAYED_SYSTEM | composite z-score |
| --- | --- | --- |
| CO[C@H]1COC(=O)[C@@H](C)COC(=O)[C@H](C)NC(=O)CC=C[C@H]1C | Dickkopf-related protein 1 (Homo sapiens) | 1.32 |
| CO[C@@H]1COC(=O)[C@@H]2CCCN2C(=O)[C@@H](C)COC(=O)CC=C[C@H]1C | Dickkopf-related protein 1 (Homo sapiens) | 1.12 |
| CC(C)CON=C1C[C@@H](O)[C@@H](O)[C@@H]2[C@@H]3C(=O)N(Cc4ccc5c(c4)OCO5)C(=O)[C@@H]3CC[C@H]12 | Dickkopf-related protein 1 (Homo sapiens) | 0.178 |
| O=C(NN=C1C[C@@H](O)[C@@H](O)[C@@H]2[C@@H]3C(=O)N(C[C@@H]4CCCO4)C(=O)[C@@H]3CC[C@H]12)OCc1ccccc1 | Dickkopf-related protein 1 (Homo sapiens) | -0.575 |
| COC(=O)CC=C[C@@H](C)[C@@H](C=NOC[C@H]1O[C@H](c2ccccc2)C=C[C@@H]1Oc1ccc(OC)cc1)OC | Dickkopf-related protein 1 (Homo sapiens) | -0.0407 |

====

test: E. coli growth modulation, two-sided OD650, primary screen, E. coli filamentation project, strain DRC41, 24 h (AID 1093); details: OD650, 24 h, higher = more signal, called active from +8 up or from −8 down;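 note: MC1000 strain lacking acrAB efflux and sulA so SOS filamentation is blocked; test concentration not given here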
Entries and their measured z-score follow.

| COMPOUND | z-score |
| --- | --- |
| COc1ccc(O[C@@H]2[C@H](O)CO[C@H]2C=Cc2ccccc2)cc1 | 0.473 |
| CC(CCC(=O)OC[C@H]1O[C@H](C#Cc2ccccc2)C=C[C@@H]1Oc1ccc(C)cc1)=NO[C@H](C)c1cn([C@H](CO)Cc2ccccc2)nn1 | 0.171 |
| COc1cccc([C@H]2Oc3ccc(OC)cc3C(=NO[C@@H](C)c3cn([C@H](CO)Cc4ccccc4)nn3)[C@@H]2O)c1 | -0.486 |
| CO[C@H](C1CCCCC1)[C@H](C)C=CCC(=O)OCCCc1ccccc1 | -0.0775 |
| COc1cccc([C@H]2Oc3ccc(OC)cc3C(=NOC[C@@H](O)[C@H]3O[C@@H]4OC(C)(C)O[C@@H]4[C@H]3O)[C@@H]2O)c1 | 0.932 |
| CO[C@H]1COC(=O)CC=C[C@H](C)[C@@H](OC)COC(=O)[C@@H](C)COC(=O)CC=C[C@@H]1C | -0.176 |
| COC(=O)[C@@H]1CC[C@H](C)[C@@H](c2ccc(C)cc2)N1C(=O)c1ccc(C=NOC[C@@H](C)[C@H](OCc2ccccc2)C(C)C)cc1 | 0.862 |
| CCN1C(=O)[C@H]2[C@H]3[C@H](O)[C@H](O)CC(=NOCC(C)C)[C@@H]3CC[C@H]2C1=O | -0.637 |
| CCOC(=O)[C@H](CC(C)C)NC(=O)CCC1CC(OC(=O)NCc2cccc3ccccc23)CC2(CCCC(COC(=O)NCc3ccncc3)O2)O1 (stereo partly specified) | 0.409 |
| COC(=O)C1=C(C)N(Cc2ccccc2)[C@]23O[C@](C(=O)OC)(C(=O)N2[C@@H]1c1ccccc1)C(C(=O)OC)=C3C(=O)OC | 0.521 |
| CCc1cc2c(nc1CC)CCN(CCC(C)=NOC[C@H]1O[C@H](c3ccccc3)C=C[C@@H]1Oc1ccc(OC)cc1)C2 | -0.782 |
